Please provide measured AUC for the entries that follow.
Method: IV and PO pharmacokinetic studies of prodrug salts (Iab, Ibb, Icb) in the monkey, with historical parent data
Format: in vivo, cynomolgus monkeys
Condition Details: cynomolgus monkey, plasma, po, 5 mg/kg; read-out: AUCtot
Just the number in µM·h, nothing appended.

*Q* Consider the compound shown here: `COc1cnc(-n2cnc(C)n2)c2[nH]cc(C(=O)C(=O)N3CCN(C(=O)c4ccccc4)CC3)c12` What is its recorded AUC?
*A* 14

*Q* Try this compound next: `O=C(C(=O)N1CCN(C(=O)c2ccccc2)CC1)c1c[nH]c2c(-n3ccnn3)ncc(F)c12`
*A* 24

====

Method: Single-dose oral toxicokinetic study of prodrugs in rats
Format: in vivo, rat
Condition Details: CD, rat, plasma; male rats, Iab 267 mg/kg PO; AUC from zero to time of last quantifiable sample; read-out: AUC
Protocol: A 1-day oral toxicokinetic study in rats was conducted using the prodrug Iab (monolysine salt). Iab was administered at dosages of 16, 72, and 267 mg/kg (free acid) by oral gavage to three male rats/group using water as the vehicle (solution formulation). The dosages of prodrug free acid correspond to IVa (parent) molar equivalent dosages of 13, 57, and 211 mg/kg, respectively. The endpoint evaluated was plasma toxicokinetics of Iab and IVa in the individual rats. […]
Measurement Kind: AUC (µM·h)
API: value field is a number in µM·h; no unit string.

*Q* What does the record list as AUC for `COc1cnc(OC)c2c1c(C(=O)C(=O)N1CCN(C(=O)c3ccccc3)CC1)cn2COP(=O)(O)O` ?
*A* 0.057
